Data origin, for the record: PubChem BioAssay (NCATS)

Molecular target: D(1A) dopamine receptor (Homo sapiens) (UniProt P21728)
Sequence (P21728 whole entry, looked up): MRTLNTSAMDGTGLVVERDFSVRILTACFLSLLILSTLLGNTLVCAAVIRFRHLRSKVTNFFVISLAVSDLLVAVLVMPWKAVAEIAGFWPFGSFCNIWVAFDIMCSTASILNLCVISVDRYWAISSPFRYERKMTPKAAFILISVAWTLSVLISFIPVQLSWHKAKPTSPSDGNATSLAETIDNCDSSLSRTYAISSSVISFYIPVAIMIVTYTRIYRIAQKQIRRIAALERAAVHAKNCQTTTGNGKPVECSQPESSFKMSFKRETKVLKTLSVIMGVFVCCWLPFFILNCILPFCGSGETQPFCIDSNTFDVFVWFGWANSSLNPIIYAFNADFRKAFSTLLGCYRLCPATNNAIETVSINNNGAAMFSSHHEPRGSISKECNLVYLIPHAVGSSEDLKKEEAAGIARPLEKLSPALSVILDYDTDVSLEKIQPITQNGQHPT
Assay: HTS Assay for Allosteric Agonists of the Human D1 Dopamine Receptor: Primary Screen for Potentiators (AID 488982)
Conditions: HEK293 T-REx D1 inducible cells, calcium flux, kinetic fluorescence; series mostly up to 8.37 µM
Records with an inconclusive call do not appear. Active and inactive are the calls of the source. Calls follow the shape of the dose curve; as a rule, active = well fitted activation curve with a large enough effect; inconclusive = small, poorly fitted or top-dose-only effect; inactive = no such curve, though single readings can be large or run the other way.
Could you please pick one outcome from this set? active, inactive

Observe how each entry below is paired with its result.
CC(C)[C@@]1(NC(=O)[C@@H]2C[C@@H]3c4cccc5[nH]cc(c45)C[C@H]3N(C)C2)O[C@@]2(O)[C@@H]3CCCN3C(=O)[C@H](Cc3ccccc3)N2C1=O
inactive
CCS(=O)(=O)Nc1cccc(C(=C2CCCCC2)c2cnc[nH]2)c1
inactive
CN1C2CCC1CC(OC(c1ccccc1)c1ccccc1N)C2 (stereo not given)
inactive
NC(=O)CI
inactive
NC(C(=O)O)c1cc(=O)[nH]o1 (stereo not given)
inactive

// return assay outcome for NC(Cc1cc(O)c(O)cc1O)C(=O)O (stereo not given) inactive

// return assay outcome for "O=S1(=O)N(CCN2CC=C(c3c[nH]c4cc(F)ccc34)CC2)c2cccc3c2N1CCC3" inactive

// return assay outcome for "N#C/C(=C/c1ccc(O)c(O)c1)C(N)=S" active

// return assay outcome for "N[C@@]1(C(=O)O)CC[C@@H](C(=O)O)C1" inactive

// return assay outcome for C[C@]12Cc3cn4c(nc3C=C1CCC1C2CC[C@@]2(C)[C@H]1CC[C@@]2(O)C#N)nc1ccccc14 (stereo not given in full) inactive

// return assay outcome for "CCCN(CCC)[C@H]1CCc2c(F)ccc(O)c2C1" inactive

// return assay outcome for "C#CCN[C@H](C)Cc1ccccc1" inactive

// return assay outcome for "C[C@H](Cc1ccc2c(c1)OC(C(=O)O)(C(=O)O)O2)NC[C@H](O)c1cccc(Cl)c1" inactive

// return assay outcome for "C[N+](C)(C)CC#CCN1CCCC1=O" inactive

// return assay outcome for "C=CCN1CC[C@]23c4c5ccc(O)c4O[C@H]2/C(=N/NC(=O)c2ccccc2)CC[C@@]3(O)[C@H]1C5" inactive

// return assay outcome for "CCCn1c(C)c(C(=O)c2ccc3ccccc3c2)c2ccccc21" inactive

// return assay outcome for "C=CCN1CC[C@]23c4c5ccc(O)c4O[C@@H]2/C(=N/N=C2\CC[C@@]4(O)C6Cc7ccc(O)c8c7[C@@]4(CCN6CC=C)[C@@H]2O8)CC[C@@]3(O)C1C5" inactive

// return assay outcome for NCC(O)c1cc(O)c(O)cc1F (stereo not given) inactive

// return assay outcome for NC(Cc1ccc(N(CCCl)CCCl)cc1)C(=O)O (stereo not given) inactive

// return assay outcome for Cc1o[nH]c(=O)c1CC(N)C(=O)O (stereo not given) inactive

// return assay outcome for "O=[N+]([O-])c1ccc2nc(N3CCNCC3)ccc2c1" inactive

// return assay outcome for CC(C)(C)c1o[nH]c(=O)c1CC(N)C(=O)O (stereo not given) inactive

// return assay outcome for "O=[N+]([O-])/C=C/c1ccc2c(c1)OCO2" inactive

====

Tested on: CP252
Assay: qHTS profiling for inhibitors of Plasmodium falciparum proliferation (AID 504749);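 also: 0% = DMSO vehicle and full inhibition = artemisinin control; nearly all actives have a fitted effect of over 60% in size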
Conditions: P. falciparum in erythrocytes, SYBR Green DNA, 72 h; series mostly up to 28.7 µM
Inconclusive results are not listed. Activity calls are given as the source filed them. The call rests on the fitted dose curve; in most records, active means well fitted inhibition curve with a large enough effect; inconclusive means small, poorly fitted or top-dose-only effect; inactive means flat fitted curve, though single readings scatter.
Could you please pick one outcome from this set? T for active, F for inactive

CCC1(c2ccccc2)C(=O)NC(=O)N(C)C1=O (stereo not given)
F

Consider now this further compound.
// return assay outcome for "CCOC(=O)c1ccccc1C(=O)OCC" F

====

System: PA-1
Experiment: Primary qHTS to identify gynecologic anti-cancer compounds using libraries of approved drugs and bioactive compounds (AID 1345084); also: potency is read from the fitted curve at half-maximal effect; nearly all actives have a fitted effect of over 55% in size
Settings: Gynecologic cancer cell panel viability, ATPlite luminescence, 48 h; series mostly up to 57.5 µM
Inconclusive results are not listed. Activity calls are given as the source filed them. Calls come from the whole dose curve; as a rule, active = well fitted cell-killing curve with a large enough effect; inconclusive = small, poorly fitted or top-dose-only effect, or effect the other way; inactive = flat fitted curve, though single readings scatter.
Property: Potency; scope: individual compounds

Observe how each entry below is paired with its result.
C[C@H]1O[C@@H](O[C@H]2C[C@@H](O)[C@]3(CO)C4C(CC[C@]3(O)C2)[C@@]2(O)CC[C@H](C3=CC(=O)OC3)[C@@]2(C)C[C@H]4O)[C@@H](O)[C@@H](O)[C@H]1O (some centres undefined)
562 nM (active)
CO[C@H]1[C@H](O)[C@H](O[C@H]2CC[C@]3(C)C4CC[C@]5(C)[C@H](C6=CC(=O)OC6)CC[C@]5(O)C4CC[C@@H]3C2)O[C@@H](C)[C@@H]1O (some centres undefined)
89.1 nM (active)
CO[C@@H]1[C@H](O)[C@@H](O[C@@H]2C[C@H]3CC[C@@H]4C(CC[C@]5(C)[C@@H](C6=CC(=O)OC6)CC[C@]45O)[C@@]3(C)[C@H](O)C2)O[C@H](C)[C@@H]1O[C@@H]1O[C@H](CO)[C@@H](O)[C@H](O)[C@H]1O (some centres undefined)
398 nM (active)

Lab note: next compound to report on.
// output Potency; input COC1CC(OC2CCC3(C=O)C(CCC4C3CCC3(C)C(C5=CC(=O)OC5)CCC43O)C2)OC(C)C1OC1OC(CO)C(O)C(O)C1O (centres undefined) ; system PA-1 501 nM (active)

====

Experiment: Tertiary RLuc qRT-PCR qHTS assay for Zika virus inhibitors (AID 1347169); also: top concentration of the series differs between compounds; % is scaled to controls: 0 for no effect and ±100 for the full control effect; nearly all actives have a fitted effect of over 55% in size
Settings: infected Vero cells, reporter luminescence, 48-72 h; series mostly up to 45.9 µM
Inconclusive results are not listed. Activity calls are given as the source filed them. The call rests on the fitted dose curve; in most records, active means well fitted inhibition curve with a large enough effect; inconclusive means small, poorly fitted or top-dose-only effect; inactive means no such curve, though single readings can be large or run the other way.
MEASURE: activity change, negative = inhibition

C[C@@H]1[C@@H]2Cc3ccc(O)cc3[C@@]1(C)CCN2CC1CC1
inactive
COc1c(C(C)C)cc2c(c1O)[C@@]1(C(=O)O)CCCC(C)(C)C1CC2 (stereo not given in full)
inactive
O=c1ccc2[nH]cc(C3=CCNCC3)c2[nH]1
inactive
O=C1OC2(c3cc(Br)c(O)cc3Oc3c2cc(Br)c(O)[c]3[Hg])c2ccccc21 (stereo not given)
-7.05% [at 0.566 µM] (inactive)

Lab note: next compound to report on.
Name the recorded activity change, negative = inhibition of the item "Oc1cc(Cl)c(Cl)cc1Cl" in your answer. -13.8% [at 5.25 µM] (inactive)

====

Experiment: HTS Assay for Allosteric Antagonists of the Human D2 Dopamine Receptor: Hit Validation in HTRF (AID 624455);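 also: stable D1 dopamine receptor cell line scored for blocking the D1 response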
Conditions: Cells stably expressing D1 dopamine receptor, inhibition mode; series mostly up to 46.1 µM
Source text: Dopamine receptors (DARs) are involved in the etiology and/or therapy of a number of neuropsychiatric and endocrine disorders. For instance, all receptor-based antiparkinsonian drugs work via stimulating the D2 DAR subtype whereas all FDA-approved antipsychotic agents are antagonists of this receptor. […]
Results filed as inconclusive are left out. Calls of active or inactive are those of the source. Calls come from the whole dose curve; as a rule, active = well fitted inhibition curve with a large enough effect; inconclusive = small, poorly fitted or top-dose-only effect; inactive = no such curve, though single readings can be large or run the other way.
Could you please pick one outcome from this set? active, inactive

NC(=O)c1cc(N2CC2)c([N+](=O)[O-])cc1[N+](=O)[O-]
inactive
NCC(O)c1cc(O)c(O)cc1F (configuration not stated)
active
NNC(=O)c1ccc(O)cc1
inactive

// return assay outcome for "Cc1c2ccncc2c(C)c2c1[nH]c1ccccc12" inactive

// return assay outcome for CC(C)(O)[C@@H]1C2OC(=O)[C@@H]1[C@]1(O)C[C@H]3O[C@]34C(=O)O[C@H]2[C@]14C (tested in a mixture with another compound) inactive

// return assay outcome for "NCCc1c[nH]c2ccc(C(N)=O)cc12" inactive

// return assay outcome for "CCCN(CCC)[C@H]1CCc2c(F)ccc(O)c2C1" active

// return assay outcome for "N[C@@H](CCl)C(=O)O" inactive

// return assay outcome for CC(N)Cc1c[nH]c2ccc(O)cc12 (configuration not stated) inactive

// return assay outcome for "C=CCN(C1=NCCN1)c1c(Cl)cccc1Cl" inactive

// return assay outcome for "N#C/C(=C/c1ccc(O)c(O)c1)C(N)=S" inactive

// return assay outcome for CC1(C(=O)O)C2CCC(O2)C1(C)C(=O)O (configuration not stated) inactive

====

Assay: Primary fluorescence-based thiol-reactive (MSTI) qHTS assay for identification of artifact compounds. (AID 1845221);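 also: thiol-reactive compounds lower the probe fluorescence signal; nearly all actives have a fitted effect of over 65% in size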
Conditions: MSTI thiol-reactivity probe, 1 h; series mostly up to 53.8 µM
Results filed as inconclusive are left out. Calls of active or inactive are those of the source. Calls come from the whole dose curve; as a rule, active = well fitted inhibition curve with a large enough effect; inconclusive = small, poorly fitted or top-dose-only effect; inactive = no such curve, though single readings can be large or run the other way.
MEASURE: activity change, negative = thiol reactive

COC(=O)C1(C)CCC(O)C2(C)c3c(O)cc(C(C)C)cc3C(O)C(OC(C)=O)C12 (centres undefined)
inactive
C/C=C(\C)C(=O)OC1C(C)OC(OC2C(C)OC(OC3CCC4(C)C(=CCC5C4CCC4(C)C(C(C)OC6OC(COC7OC(CO)C(O)C(O)C7O)C(O)C(O)C6O)CCC54O)C3)CC2OC)C(O)C1OC (centres undefined)
16.4% [at 11.5 µM] (inactive)
Clc1ccc(N2C[C@H]3CC[C@@H](C2)N3)nn1
inactive
COc1cc(C)[nH]c(=O)c1CNC(=O)c1c(C)n([C@H](C)C2CCOCC2)c2ccccc12
inactive
